PROCEDURE SUMMARY: Liver microsomal stability
Format: in vitro ADME, mouse
PROTOCOL CONDITIONS: male, CD-1, mouse, pH 7.4; liver microsomes, 1 μM compound, 37 °C; read-out: t½
Decide using half-life at 1 µM: a value greater than or equal to 1 h is criterion met, a smaller one is criterion not met.

| COMPOUND | CLASS ASSIGNMENT |
| --- | --- |
| C=CC(C)C1CCC2C3C(O)C(CC)C4CC(O)CCC4(C)C3CCC12C (centres unmarked) | criterion not met |
| CC[C@H]1[C@@H](O)[C@@H]2[C@H](CC[C@]3(C)[C@@H]([C@H](C)CCC(=O)O)CC[C@@H]23)[C@@]2(C)CC[C@@H](O)C[C@@H]12 [6-ECDCA, 6-ethylchenodeoxycholic acid, reference compound] | criterion not met |
| CCC1C(O)C2C3CCC(C(C)CO)C3(C)CCC2C2(C)CCCCC12 (centres unmarked) | criterion met |
| CCC1C(O)C2C3CCC(C(C)CO)C3(C)CCC2C2(C)CCC(O)CC12 (centres unmarked) | criterion met |
| CCC(C)C1CCC2C3C(O)C(CC)C4CC(O)CCC4(C)C3CCC12C (centres unmarked) | criterion met |

---

ASSAY TARGET: human GPBAR1 (Homo sapiens, UniProt Q8TDU6)
Construct: expressed in transfected cells; host or cells: HEK293T
Sequence (Q8TDU6 1-330): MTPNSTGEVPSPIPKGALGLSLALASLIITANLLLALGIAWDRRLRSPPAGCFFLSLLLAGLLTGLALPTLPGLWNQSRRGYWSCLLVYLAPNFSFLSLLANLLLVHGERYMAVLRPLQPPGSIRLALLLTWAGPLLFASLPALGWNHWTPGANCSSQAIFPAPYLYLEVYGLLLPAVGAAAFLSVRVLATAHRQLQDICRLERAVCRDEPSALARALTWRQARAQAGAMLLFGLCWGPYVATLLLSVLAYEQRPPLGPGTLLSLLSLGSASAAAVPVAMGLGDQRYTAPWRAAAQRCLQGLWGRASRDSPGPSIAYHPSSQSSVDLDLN
PROCEDURE SUMMARY: GPBAR1 transactivation (CRE luciferase reporter) assay in HEK293T cells
Assay type: cell-based
PROTOCOL CONDITIONS: maximum efficacy of compound (10 µM) relative to TLCA (10 μM) set as 100, CRE transactivation
Decide using GPBAR1 Eff (%) vs TLCA: a value greater than or equal to 20% is label 1, a smaller one is label 0.

| MOLECULE | CLASS ASSIGNMENT |
| --- | --- |
| CCC(C)C1CCC2C3C(O)C(CC)C4CC(O)CCC4(C)C3CCC12C (stereo not drawn) | label 1 |
| C=CC(C)C1CCC2C3C(O)C(CC)C4CC(O)CCC4(C)C3CCC12C (stereo not drawn) | label 1 |
| CCC(C)C1CCC2C3C(O)C(CC)C4CCCCC4(C)C3CCC12C (stereo not drawn) | label 0 |
| C=CC(C)C1CCC2C3C(O)C(CC)C4CCCCC4(C)C3CCC12C (stereo not drawn) | label 0 |
| CCC1C(O)C2C3CCC(C(C)CO)C3(C)CCC2C2(C)CCCCC12 (stereo not drawn) | label 0 |
| CCC1C(O)C2C3CCC(C(C)CO)C3(C)CCC2C2(C)CCC(O)CC12 (stereo not drawn) | label 1 |

---

PROCEDURE SUMMARY: Aqueous solubility measurement (PBS pH 7.4, LC-MS)
Type: physicochemical
PROTOCOL CONDITIONS: aqueous buffer, kinetic from dmso stock; aqueous solubility at pH 7.4 (PBS), 24 h room temperature

| COMPOUND | solubility at 24 h (µM) |
| --- | --- |
| C=CC(C)C1CCC2C3C(O)C(CC)C4CC(O)CCC4(C)C3CCC12C (centres unmarked) [compound 1] | 201 |
| CCC1C(O)C2C3CCC(C(C)CO)C3(C)CCC2C2(C)CCCCC12 (centres unmarked) [compound 6] | 162 |
| CCC(C)C1CCC2C3C(O)C(CC)C4CC(O)CCC4(C)C3CCC12C (centres unmarked) [compound 2] | 176 |
| CCC1C(O)C2C3CCC(C(C)CO)C3(C)CCC2C2(C)CCC(O)CC12 (centres unmarked) [compound 3] | 210 |
| CC[C@H]1[C@@H](O)[C@@H]2[C@H](CC[C@]3(C)[C@@H]([C@H](C)CCC(=O)O)CC[C@@H]23)[C@@]2(C)CC[C@@H](O)C[C@@H]12 [6-ECDCA, 6-ethylchenodeoxycholic acid, reference compound] | 195 |

---

PROCEDURE SUMMARY: Liver microsomal stability
Format: in vitro ADME, mouse
PROTOCOL CONDITIONS: male, CD-1, mouse, pH 7.4; liver microsomes, 1 μM compound, 37 °C

| COMPOUND | microsomal CLint at 1 µM / µL/min/mg |
| --- | --- |
| CC[C@H]1[C@@H](O)[C@@H]2[C@H](CC[C@]3(C)[C@@H]([C@H](C)CCC(=O)O)CC[C@@H]23)[C@@]2(C)CC[C@@H](O)C[C@@H]12 [6-ECDCA, 6-ethylchenodeoxycholic acid, reference compound] | 109 |
| CCC1C(O)C2C3CCC(C(C)CO)C3(C)CCC2C2(C)CCCCC12 (centres unmarked) [compound 6] | 19.7 |
| CCC(C)C1CCC2C3C(O)C(CC)C4CC(O)CCC4(C)C3CCC12C (centres unmarked) [compound 2] | 25 |
| CCC1C(O)C2C3CCC(C(C)CO)C3(C)CCC2C2(C)CCC(O)CC12 (centres unmarked) [compound 3] | 36.6 |
| C=CC(C)C1CCC2C3C(O)C(CC)C4CC(O)CCC4(C)C3CCC12C (centres unmarked) [compound 1] | 52.6 |

---

Parameter: EC50. Scope: all listed entries.
ASSAY TARGET: human FXR (Homo sapiens, UniProt Q96RI1)
Sequence (Q96RI1 1-486): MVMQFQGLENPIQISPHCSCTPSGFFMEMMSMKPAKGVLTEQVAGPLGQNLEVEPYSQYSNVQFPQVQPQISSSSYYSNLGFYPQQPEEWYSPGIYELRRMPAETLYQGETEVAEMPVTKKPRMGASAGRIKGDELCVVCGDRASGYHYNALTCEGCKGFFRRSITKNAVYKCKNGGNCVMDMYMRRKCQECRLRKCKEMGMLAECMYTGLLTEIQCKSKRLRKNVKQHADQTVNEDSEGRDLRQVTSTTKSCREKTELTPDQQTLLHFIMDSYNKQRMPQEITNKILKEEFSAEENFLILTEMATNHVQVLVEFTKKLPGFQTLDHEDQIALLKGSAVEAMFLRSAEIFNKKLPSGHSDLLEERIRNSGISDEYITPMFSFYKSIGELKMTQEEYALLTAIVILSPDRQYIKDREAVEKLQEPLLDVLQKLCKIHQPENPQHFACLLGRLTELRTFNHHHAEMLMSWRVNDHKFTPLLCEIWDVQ
Sequence (P19793 1-462 partner): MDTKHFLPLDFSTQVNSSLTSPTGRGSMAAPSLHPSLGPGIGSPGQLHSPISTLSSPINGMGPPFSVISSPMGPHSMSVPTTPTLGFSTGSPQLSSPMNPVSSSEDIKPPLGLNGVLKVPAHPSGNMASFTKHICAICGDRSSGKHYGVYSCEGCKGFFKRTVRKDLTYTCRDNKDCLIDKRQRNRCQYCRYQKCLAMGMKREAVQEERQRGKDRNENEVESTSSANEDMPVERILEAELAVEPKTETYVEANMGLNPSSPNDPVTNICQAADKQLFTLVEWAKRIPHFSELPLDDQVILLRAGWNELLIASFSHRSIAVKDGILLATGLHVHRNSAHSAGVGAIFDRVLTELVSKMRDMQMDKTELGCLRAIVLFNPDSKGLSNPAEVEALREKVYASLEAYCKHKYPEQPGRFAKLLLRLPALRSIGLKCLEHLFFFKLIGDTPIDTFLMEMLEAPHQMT
PROCEDURE SUMMARY: FXR transactivation luciferase reporter assay in HepG2 cells
PROTOCOL CONDITIONS: dose response 0.5 to 50 µM, HepG2 cells, 18 h
Method: To evaluate FXR mediated transactivation, HepG2 cells were transfected with 100 ng of human pSG5-FXR, 100 ng of human pSG5-RXR, 200 ng of the reporter vector p(hsp27)-TK-LUC containing the FXR response element IR1 cloned from the promoter of heat shock protein 27 (hsp27) and with 100 ng of pGL4.70 (Promega), a vector encoding the human Renilla gene. […]

| COMPOUND | EC50 (nM) |
| --- | --- |
| CCC1C(O)C2C3CCC(C(C)CO)C3(C)CCC2C2(C)CCCCC12 (stereo not shown) [compound 6] | 13700 |
| CCC1C(O)C2C3CCC(C(C)CO)C3(C)CCC2C2(C)CCC(O)CC12 (stereo not shown) [compound 3] | 2800 |
| CCC(C)C1CCC2C3C(O)C(CC)C4CC(O)CCC4(C)C3CCC12C (stereo not shown) [compound 2] | 1300 |
| C=CC(C)C1CCC2C3C(O)C(CC)C4CC(O)CCC4(C)C3CCC12C (stereo not shown) [compound 1] | 1800 |
